assay: qHTS Assay for NPC1 Promoter Activators; conditions: Huh7 NPC1 promoter luciferase reporter, 24 h; series mostly up to 9.22 µM; note: nearly all actives have a fitted effect of over 60% in size;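 for activation: reporter is driven by a mutant NPC1 promoter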
Out of some 320,000 compounds screened, about 7,600 (2.4%) were called active. Inconclusive results (about 3%) are left out. Calls come from the whole dose curve; as a rule, active = well fitted activation curve with a large enough effect; inconclusive = small, poorly fitted or top-dose-only effect; inactive = no such curve, though single readings can be large or run the other way. This is one part of a sample in which actives are shown more often than they occur.
Respond using exactly one of the listed classes: active, inactive

Solved entries (count: 6):
molecule=N#Cc1nc(Cc2ccccc2)oc1NCCc1ccccc1 assigned_label=active
molecule="CC(NC(=O)CSc1nc2c(cc1C#N)CN(C)CC2)c1ccccc1 (stereo not drawn)" assigned_label=inactive
molecule=O=C(Nc1cccc(NC(=O)c2ccco2)c1)c1cnccn1 assigned_label=inactive
molecule=CC(C)N(C(=O)CSc1nnc(NC2CC2)s1)c1ccccc1 assigned_label=inactive
molecule=O=C(NCc1cccnc1)c1cn(-c2ccccc2)nc1-c1cccs1 assigned_label=inactive
molecule=O=C(Cc1nc2ccccc2[nH]c1=O)c1ccc(Cl)cc1 assigned_label=active

In this assay, the call recorded for "O=c1[nH]c2cccnc2n1-c1ccc([N+](=O)[O-])cc1" was what?
inactive

How about "CN1CCN(c2ccc(NC(=O)c3ccc4c(c3)[nH]c(=O)n4Cc3ccc(F)cc3)cc2)CC1" ?
inactive

How about "Nc1nonc1-c1noc(-c2ccc(Br)o2)n1" ?
inactive

How about CCCCc1ccc(NC(=S)N2CCCC(CO)C2)cc1 (stereo not drawn) ?
active

How about CCC1CCC2(CC1)NC(=O)N(CC(=O)Nc1ccc(OC)cc1)C2=O (stereo not drawn) ?
inactive
